- target-system: BAF3 EGFR DEL T790M PURO POOL (Homo sapiens, UniProt P00533, DEL746-750/T790M, cells depend on it)
- Sequence (P00533 with tags, fused parts or gaps DEL746-750/T790M): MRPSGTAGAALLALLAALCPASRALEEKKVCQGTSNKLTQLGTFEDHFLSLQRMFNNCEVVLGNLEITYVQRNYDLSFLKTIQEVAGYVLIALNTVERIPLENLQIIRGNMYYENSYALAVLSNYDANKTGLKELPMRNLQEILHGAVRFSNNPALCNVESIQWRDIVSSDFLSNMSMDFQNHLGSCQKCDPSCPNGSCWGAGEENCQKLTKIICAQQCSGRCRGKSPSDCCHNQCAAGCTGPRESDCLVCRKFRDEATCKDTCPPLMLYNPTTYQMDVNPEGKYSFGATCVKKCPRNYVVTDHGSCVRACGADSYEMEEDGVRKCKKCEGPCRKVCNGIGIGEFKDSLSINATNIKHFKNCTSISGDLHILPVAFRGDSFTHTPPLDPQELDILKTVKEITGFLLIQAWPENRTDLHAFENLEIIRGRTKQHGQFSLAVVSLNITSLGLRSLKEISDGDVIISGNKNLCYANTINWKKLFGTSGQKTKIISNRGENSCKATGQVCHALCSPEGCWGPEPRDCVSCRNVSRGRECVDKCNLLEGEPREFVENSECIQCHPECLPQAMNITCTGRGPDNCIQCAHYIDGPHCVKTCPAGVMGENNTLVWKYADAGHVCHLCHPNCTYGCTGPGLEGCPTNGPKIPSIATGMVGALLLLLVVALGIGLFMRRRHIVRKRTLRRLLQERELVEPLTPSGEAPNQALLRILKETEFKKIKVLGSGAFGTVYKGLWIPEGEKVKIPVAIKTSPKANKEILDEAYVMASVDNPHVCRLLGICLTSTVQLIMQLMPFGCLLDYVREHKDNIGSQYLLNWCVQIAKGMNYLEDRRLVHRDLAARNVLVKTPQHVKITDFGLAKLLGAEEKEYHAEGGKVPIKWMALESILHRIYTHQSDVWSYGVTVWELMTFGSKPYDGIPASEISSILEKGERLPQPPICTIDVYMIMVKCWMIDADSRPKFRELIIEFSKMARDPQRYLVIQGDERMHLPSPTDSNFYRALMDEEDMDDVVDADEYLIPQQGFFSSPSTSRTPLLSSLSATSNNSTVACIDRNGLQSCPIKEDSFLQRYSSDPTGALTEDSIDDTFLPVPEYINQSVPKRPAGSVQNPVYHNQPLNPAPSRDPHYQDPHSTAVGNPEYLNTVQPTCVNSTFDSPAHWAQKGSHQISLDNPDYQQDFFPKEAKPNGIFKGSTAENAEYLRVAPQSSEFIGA
- experimental-protocol: Cell proliferation (MTT), BAF3 EGFR DEL T790M
- Type: cell-based
measure-name: IC50

smiles-input	IC50
C=CC(=O)N(C(=O)C=C)c1ccc(OC)c(Nc2ncc(Cl)c(Nc3ccccc3P(C)(C)=O)n2)c1	< 51 nM
C=CC(=O)Nc1ccc(OC)c(Nc2ncc(C3CC3)c(Nc3ccccc3P(C)(C)=O)n2)c1	< 51 nM
COc1cc(F)c(NC(=O)/C=C/CN(C)C)cc1Nc1ncc(Cl)c(Nc2ccccc2P(C)(C)=O)n1	< 51 nM
C=C(C)C(=O)Nc1ccc(OC)c(Nc2ncc(Cl)c(Nc3ccccc3P(C)(C)=O)n2)c1	101 to 250 nM
C=CC(=O)Nc1ccc(OC)c(Nc2ncc(Cl)c(Nc3cccc(C)c3P(=O)(CC)CC)n2)c1	< 51 nM

Determine from records and report IC50 for C=CC(=O)Nc1cc(Nc2ncc(Cl)c(Nc3ccccc3P(C)(C)=O)n2)c(OC)cc1N1CCOCC1
< 51 nM

Report IC50, nothing else, for this molecule: COCCOc1cc(OC)c(Nc2ncc(Cl)c(Nc3ccccc3P(C)(C)=O)n2)cc1NC(=O)/C=C/CN(C)C
≥ 250 nM

Report measured IC50; entry is C=C(CN(C(C)C)C(C)C)C(=O)Nc1ccc(OC)c(Nc2ncc(Cl)c(Nc3ccccc3P(C)(C)=O)n2)c1
< 51 nM

Give the value of IC50 reported for the following: CC#CC(=O)Nc1ccc(OC)c(Nc2ncc(Cl)c(Nc3ccccc3P(C)(C)=O)n2)c1
< 51 nM

Item C=CC(=O)Nc1cc(Nc2ncc(Cl)c(Nc3ccccc3P(C)(C)=O)n2)c(OC)cc1OCCOC : provide IC50
< 51 nM

Give the measured IC50 for C=CC(=O)Nc1cc(Nc2ncc(Cl)c(Nc3ccccc3P(C)(C)=O)n2)c(OC)cc1F
< 51 nM

Supply IC50 value. Item: C=CC(=O)Nc1ccc(Nc2ncc(Cl)c(Nc3ccccc3P(C)(C)=O)n2)c(OC)c1
≥ 250 nM

Give me measured IC50, please, for this molecule: C=CC(=O)Nc1cc(Nc2ncc(Cl)c(Nc3ccccc3P(C)(C)=O)n2)c(OC)cc1CCCN(CC)CC
< 51 nM
